inhibition overview
target_under_test: Alkaline phosphatase, tissue-nonspecific isozyme (Homo sapiens) (UniProt P05186)
Sequence (P05186 whole entry, looked up): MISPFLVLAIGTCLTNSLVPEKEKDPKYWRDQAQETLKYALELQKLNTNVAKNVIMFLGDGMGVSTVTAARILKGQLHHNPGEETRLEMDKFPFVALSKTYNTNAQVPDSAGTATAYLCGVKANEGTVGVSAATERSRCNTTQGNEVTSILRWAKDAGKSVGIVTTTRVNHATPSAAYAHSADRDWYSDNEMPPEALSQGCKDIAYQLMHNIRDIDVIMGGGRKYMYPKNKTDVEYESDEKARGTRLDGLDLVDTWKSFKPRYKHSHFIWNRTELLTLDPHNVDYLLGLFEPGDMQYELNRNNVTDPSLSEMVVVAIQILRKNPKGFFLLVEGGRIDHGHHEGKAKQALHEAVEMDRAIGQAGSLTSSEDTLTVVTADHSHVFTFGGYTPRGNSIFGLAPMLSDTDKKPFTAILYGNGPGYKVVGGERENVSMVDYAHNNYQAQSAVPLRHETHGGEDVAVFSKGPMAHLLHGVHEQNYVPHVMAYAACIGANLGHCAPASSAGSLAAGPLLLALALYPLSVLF
experiment_notes: human TNAP enzyme inhibitors, primary screen, biochemical, colorimetric, phosphate release readout (AID 614)
run_conditions: purified TNAP, pNPP, malachite green phosphate absorbance; at 20 µM; stronger effect = higher value
The whole screen tested about 21,000 compounds, of which fewer than 10 were called active. A selection follows.
Write down the numeric answer in % and omit the unit.

[[record]]
molecule = "Cc1ccc(S(=O)(=O)N2CCC(N3CCCCCC3)CC2)cc1"
target_under_test = "Alkaline phosphatase, tissue-nonspecific isozyme (Homo sapiens) (UniProt P05186)"
result_number = 7

[[record]]
molecule = "CCOC(=O)CCc1c(C)c2ccc(OCc3nn[nH]n3)c(C)c2oc1=O"
target_under_test = "Alkaline phosphatase, tissue-nonspecific isozyme (Homo sapiens) (UniProt P05186)"
result_number = -5.8

[[record]]
molecule = "COC(=O)c1nc(NC(=O)c2ccc(Cl)cc2)n[nH]1"
target_under_test = "Alkaline phosphatase, tissue-nonspecific isozyme (Homo sapiens) (UniProt P05186)"
result_number = 1.5


For `CN(C)Cc1c(C#N)c2ccccc2n1C` , what is its reported inhibition?
-22.9

Quick one: inhibition for `CCn1c(SCC(=O)Nc2cc(C)c(Cl)cc2OC)nnc1-c1ccco1` ?
10.5

inhibition lookup needed for NC(=O)C1CCN(C2OC(=O)c3ccccc32)CC1 (centres undefined) , thanks.
0

Bench note: what inhibition did `COc1ccc2c(c1)C(C)=CC(C)(C)N2C(=O)CNCc1ccc2c(c1)OCO2` show?
6.2

So what's the measured inhibition for this one? `O=C(CSc1nnc(-c2cccnc2)n1Cc1ccco1)c1ccc(Cl)cc1`
8.1

Need inhibition of CC(=O)Nc1ccc(S(=O)(=O)N2CCCC2C(=O)O)cc1 (centres undefined) , thanks.
10.8

###

target_under_test: Alkaline phosphatase, tissue-nonspecific isozyme (Homo sapiens) (UniProt P05186)
experiment_notes: human TNAP enzyme inhibitors, primary screen, biochemical, colorimetric, phosphate release readout (AID 614)
run_conditions: purified TNAP, pNPP, malachite green phosphate absorbance; at 20 µM; stronger effect = higher value
The campaign covered roughly 21,000 compounds. Fewer than 10 were called active. Only a sample is shown.
assay_metric: inhibition (%)
// return numeric value only (unit: %, not printed)

The following molecules have reported results that may help.
[[record]]
molecule = "O=C(Nc1cccc2c1CCCC2)C1CCN(C(=O)NC2CCCCC2)CC1"
target_under_test = "Alkaline phosphatase, tissue-nonspecific isozyme (Homo sapiens) (UniProt P05186)"
result_number = 15.2

[[record]]
molecule = "Cc1cc(C)c(C#N)c(SCc2ccccc2C(=O)O)n1"
target_under_test = "Alkaline phosphatase, tissue-nonspecific isozyme (Homo sapiens) (UniProt P05186)"
result_number = -0.3

[[record]]
molecule = "CC1C(c2ccccc2)=[N+]([O-])C2(CCCC2)N1O (stereo not drawn)"
target_under_test = "Alkaline phosphatase, tissue-nonspecific isozyme (Homo sapiens) (UniProt P05186)"
result_number = 12.6

[[record]]
molecule = "O=S(=O)(NCc1ccccn1)c1ccc(Br)s1"
target_under_test = "Alkaline phosphatase, tissue-nonspecific isozyme (Homo sapiens) (UniProt P05186)"
result_number = -2.3

[[record]]
molecule = "Cc1ccc(C2(c3ccc(C)cc3)NC(=O)N(Cc3c(C)noc3C)C2=O)cc1"
target_under_test = "Alkaline phosphatase, tissue-nonspecific isozyme (Homo sapiens) (UniProt P05186)"
result_number = -2

[[record]]
molecule = "COC(=O)c1ccc(CSc2nncn2C)cc1"
target_under_test = "Alkaline phosphatase, tissue-nonspecific isozyme (Homo sapiens) (UniProt P05186)"
result_number = 11

[[record]]
molecule = "COCCNC(=O)CN(C(=O)CCC(=O)Nc1cc(C)on1)c1ccc(C)cc1C"
target_under_test = "Alkaline phosphatase, tissue-nonspecific isozyme (Homo sapiens) (UniProt P05186)"
result_number = 14.4

[[record]]
molecule = "Cc1ccc(C)c(NC(=O)C2CCCN2C(=O)OC(C)(C)C)c1 (stereo not drawn)"
target_under_test = "Alkaline phosphatase, tissue-nonspecific isozyme (Homo sapiens) (UniProt P05186)"
result_number = -3.4


API: value(readout=inhibition, system=Alkaline phosphatase, tissue-nonspecific isozyme (Homo sapiens) (UniProt P05186)) for record `O=C(O)CCC(=O)N(Cc1ccco1)c1nc(-c2ccccc2)cs1`
7.9

Find inhibition (Alkaline phosphatase, tissue-nonspecific isozyme (Homo sapiens) (UniProt P05186)) for the entry `CSCC[C@H](NC(=O)NCc1cccs1)C(=O)O`
-0.1

Under Alkaline phosphatase, tissue-nonspecific isozyme (Homo sapiens) (UniProt P05186): inhibition value of CN1CCN(S(=O)(=O)c2ccc(NC(=O)C3CCCO3)cc2)CC1 (stereo not drawn) ?
11.5

Record `COc1ccc(-c2n[nH]c(C)c2-c2ccc(OC)c(OC)c2)c(O)c1` : what is its inhibition with Alkaline phosphatase, tissue-nonspecific isozyme (Homo sapiens) (UniProt P05186)?
7.2

Can you look up inhibition on Alkaline phosphatase, tissue-nonspecific isozyme (Homo sapiens) (UniProt P05186) for `CNC(=O)c1nnn(-c2ccccc2)c1C(=O)NC` ?
6.4

Hello, I am looking for reported inhibition with Alkaline phosphatase, tissue-nonspecific isozyme (Homo sapiens) (UniProt P05186) for `N#Cc1c2c(c(-c3ccccc3)[nH]c1=O)CCCC2` . Could you help?
9.6

Provide the documented inhibition with Alkaline phosphatase, tissue-nonspecific isozyme (Homo sapiens) (UniProt P05186) as the system for CC(C)C(=O)N1CCN(CCN=CC2=C(O)CC(c3ccco3)CC2=O)CC1 (stereo not drawn)
2.1

Query the reported inhibition for Alkaline phosphatase, tissue-nonspecific isozyme (Homo sapiens) (UniProt P05186); item: `Cc1ccc(Oc2ccc(N)cc2)cc1`
15

Form field: inhibition recorded for `COc1ccc(-c2nnc(SCC(=O)c3ccco3)n2-c2ccccc2)cc1` with Alkaline phosphatase, tissue-nonspecific isozyme (Homo sapiens) (UniProt P05186) (enter value)
2.3

For Alkaline phosphatase, tissue-nonspecific isozyme (Homo sapiens) (UniProt P05186), provide inhibition of `C=CCc1cccc2cc(C(=O)N3CCN(C(=O)OCC)CC3)c(=O)oc12` please.
5.5

So what inhibition did `CCN1CCN(C(=O)c2ccccc2N(C)S(=O)(=O)c2ccc(C)cc2)CC1` get with Alkaline phosphatase, tissue-nonspecific isozyme (Homo sapiens) (UniProt P05186)?
11.4

// map COc1ccc2c(c1OC)C(=O)OC2c1c(O)nc(SC)n(-c2ccccc2)c1=O (stereo not drawn) to recorded inhibition (system: Alkaline phosphatase, tissue-nonspecific isozyme (Homo sapiens) (UniProt P05186))
-0.7

Could you share what inhibition was measured for `COC(=O)c1ccc(NC(=O)CSc2nnc(CNc3ccc(OC)cc3)n2C)cc1` , tested on Alkaline phosphatase, tissue-nonspecific isozyme (Homo sapiens) (UniProt P05186)?
-7.8

Under Alkaline phosphatase, tissue-nonspecific isozyme (Homo sapiens) (UniProt P05186): inhibition value of O=C1c2oc3ccc(Br)cc3c(=O)c2C(c2cccc(F)c2)N1CCO (stereo not drawn) ?
10.1

What measured inhibition is associated with `Fc1cnc(N2CCOCC2)nc1NCc1ccccc1` on Alkaline phosphatase, tissue-nonspecific isozyme (Homo sapiens) (UniProt P05186)?
-0.4
